TARGET_UNDER_TEST: arachidonate 5-lipoxygenase (Rattus norvegicus)
Construct: endogenous in cells; host or cells: pleural exudate cells of male Harlan Sprague-Dawley rats, 3 hr after intrapleural carrageenan
Sequence (P12527 whole entry): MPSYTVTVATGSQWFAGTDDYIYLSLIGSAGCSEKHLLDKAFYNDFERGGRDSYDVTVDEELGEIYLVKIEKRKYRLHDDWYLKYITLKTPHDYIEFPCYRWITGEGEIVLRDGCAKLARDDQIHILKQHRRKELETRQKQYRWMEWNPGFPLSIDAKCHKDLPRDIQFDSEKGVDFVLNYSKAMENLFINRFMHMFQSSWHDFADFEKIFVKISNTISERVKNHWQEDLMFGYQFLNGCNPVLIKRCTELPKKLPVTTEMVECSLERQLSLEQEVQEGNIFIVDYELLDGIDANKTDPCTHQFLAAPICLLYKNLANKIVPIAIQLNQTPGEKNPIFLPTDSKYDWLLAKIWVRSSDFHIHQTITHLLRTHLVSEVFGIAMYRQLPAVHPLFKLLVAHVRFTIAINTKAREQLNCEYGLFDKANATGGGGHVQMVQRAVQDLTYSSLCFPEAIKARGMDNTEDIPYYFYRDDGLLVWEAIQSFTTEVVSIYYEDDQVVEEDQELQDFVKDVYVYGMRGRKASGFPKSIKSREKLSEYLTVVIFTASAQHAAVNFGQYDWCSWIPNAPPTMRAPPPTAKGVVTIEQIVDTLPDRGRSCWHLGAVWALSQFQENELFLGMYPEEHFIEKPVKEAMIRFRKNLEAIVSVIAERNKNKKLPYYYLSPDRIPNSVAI
ASSAY_DETAILS: Arachidonate metabolism: 5-lipoxygenase inhibition in rat pleural exudate cells
Type: cell-based, rat (Harlan Sprague-Dawley male)
EXPERIMENTAL_CONDITIONS: ionophore A23187, 10 μM arachidonate, 37° C., read-out: Enzymes IC50 5-LO
Listed here: items and their measured IC50.
Give just the numeric value; nM need not be written.

Completed entries (count: 2):
>  <SMILES_NOTATION>
O=C(O)/C=C/c1ccc(-c2nc3c(=O)n(CC4CCCC4)c(=O)n(CC4CCCC4)c3[nH]2)cc1

>  <IC50, nM>
6000

$$$$
>  <SMILES_NOTATION>
O=C(O)/C=C/c1ccc(-c2nc3c(=O)n(CC4CCCCC4)c(=O)n(CC4CCCCC4)c3[nH]2)cc1

>  <IC50, nM>
300

$$$$

Continue with the compound presented below.
Q: Name the recorded IC50 for O=C(O)/C=C/c1ccc(-c2nc3c(=O)n(CC4CCCCCC4)c(=O)n(CC4CCCCCC4)c3[nH]2)cc1 .
Ans: 1500
